# credit: patent US20230404913A1

- TEST_NAME: Pharmacokinetic study, 3-period crossover, plasma concentrations of Compound A by LC-MS/MS
- Assay type: in vivo, human
- ASSAY_CONTEXT: human, plasma, oral, 50 mg, pediatric formulation, 50 mg single dose, fed (high-fat meal); read-out: AUC0-inf, mean
PROPERTY_MEASURED: AUC(0-inf) (ng·h/mL)

| STRUCTURE_NOTATION | PROPERTY_MEASURED | MEASURED_RESULT |
| --- | --- | --- |
| Cc1cc(S(=O)(=O)Nc2cscn2)c(F)cc1N(C)[C@H]1CCN(Cc2ccccc2)C1 | AUC(0-inf) | 11800 |

###

- TEST_NAME: Pharmacokinetic study, 3-period crossover, plasma concentrations of Compound A by LC-MS/MS
- Assay type: in vivo, human
- ASSAY_CONTEXT: human, plasma, oral, 50 mg, pediatric formulation, 50 mg single dose, fasting; read-out: AUC0-t, mean
- Experimental: In this single center, open-label, randomized study, 24 subjects (8 per each arm) received Compound A adult immediate release tablet or granular formulation suitable for reconstitution formulation in a fasted or fed state (high fat meal) in a 3-period, 3-sequence crossover design. […] Serial PK samples were obtained pre-dose and at specific timepoints through 48 h post-dose Plasma concentrations of Compound A were determined using validated liquid chromatography with tandem mass spectrometry method.
PROPERTY_MEASURED: AUC(0-t) (ng·h/mL)

| STRUCTURE_NOTATION | UNIT | MEASURED_RESULT |
| --- | --- | --- |
| Cc1cc(S(=O)(=O)Nc2cscn2)c(F)cc1N(C)[C@H]1CCN(Cc2ccccc2)C1 | ng·h/mL | 11100 |

###

- TEST_NAME: Pharmacokinetic study, 3-period crossover, plasma concentrations of Compound A by LC-MS/MS
- Assay type: in vivo, human
- ASSAY_CONTEXT: human, plasma, oral, 50 mg, pediatric formulation, 50 mg single dose, fed (high-fat meal); read-out: AUC0-t, mean

| STRUCTURE_NOTATION | UNIT | AUC(0-t) |
| --- | --- | --- |
| Cc1cc(S(=O)(=O)Nc2cscn2)c(F)cc1N(C)[C@H]1CCN(Cc2ccccc2)C1 | ng·h/mL | 11700 |

###

- TEST_NAME: Pharmacokinetic study, urinary excretion of unchanged Compound A
- Type: in vivo, human
- ASSAY_CONTEXT: human, urine, oral, 50 mg, pediatric formulation 50 mg, fasting

| STRUCTURE_NOTATION | UNIT | CL renal |
| --- | --- | --- |
| Cc1cc(S(=O)(=O)Nc2cscn2)c(F)cc1N(C)[C@H]1CCN(Cc2ccccc2)C1 | mL/min | 0.05 |

###

- TEST_NAME: Pharmacokinetic study, urinary excretion of unchanged Compound A
- Assay type: in vivo, human
- ASSAY_CONTEXT: human, urine, oral, 50 mg, pediatric formulation 50 mg, fed

| COMPOUND | UNIT | CL renal |
| --- | --- | --- |
| Cc1cc(S(=O)(=O)Nc2cscn2)c(F)cc1N(C)[C@H]1CCN(Cc2ccccc2)C1 [Compound A] | mL/min | 0.055 |
